# MEASURED ON: T1, recombinant human TfR (r human TfR: Sino Biological Inc.) (human, UniProt P02786 89-760)
# T1 construct: Bought product; also called r human TfR-ECD (Histag); hTfR; not shown: histidine tag attached to the N-terminus
# PROCEDURE TEXT: BLI (Octet RED96), His-tagged TfR ECD loaded on Ni-NTA sensor, antibody as analyte
MEASURED ENDPOINT: kon (M⁻¹ s⁻¹)
Numbers only, in M⁻¹ s⁻¹.

Worked examples, 2 binders total:
BINDER | UNIT ANNOTATION | ENDPOINT RESULT
anti-hTfR antibody No. 10 (antibody, V domains shown, Mouse hybridoma antibody purified on Protein G; also called mouse anti-hTfR antibody No. 10; product of Clone 10 line) VH: EVQLQESGGGLVKPGGSLKLSCEASGITFRNYAMSWVRQTPEKRLEWVATISSYGGYTYYADSVKGRFTVSRDNAGNTLYLQMSSLRSEDTAMYHCARQEVPYPYPMDNWGQGTSVIVSS VL: DIVMTQTPSSLSASLGERVSLTCRPSQEISGYLSWLQQKPDGTIKRLIYAASTLDSGVPKRFSGSRSGSDYSLTISSLESEDFADYYCLQYASYPRTFGGGTKLEIK | M⁻¹ s⁻¹ | 679000
anti-hTfR antibody No. 8 (antibody, V domains shown, Mouse hybridoma antibody purified on Protein G; also called mouse anti-hTfR antibody No. 8; product of Clone 8 line) VH: EVQLQESGPGLVAPSQSLSITCTVSGFSLTTYGVSWIRQPPGKGLEWLGIIWGDGSTNYRSALISRLSISKDNSKNQVFLKLNSLQTDDTATYYCAKPDDYWGQGTSVTVSS VL: DIVLTQSPAIMSASLGEEITLTCSASSSVSYMHWYQQKSGTSPKVLIYGTSNLASEVPSRFSGSGSGTFYSLTISSVEAEDAADYYCHQWSSYPWTFGGGTKLEIK | M⁻¹ s⁻¹ | 696000

We next turn to a different binder, shown below.
**Query** Consider the binder shown here: anti-hTfR antibody No. 12 (antibody, V domains shown, Mouse hybridoma antibody purified on Protein G; also called mouse anti-hTfR antibody No. 12; product of Clone 12 line) VH: EVQLQESGAELARPGTSVKVSCKAAGYVFINYLIEWVKQRPGQGLEWIGVIHSGSGGTNYNDNFKDKATLTRDVSSSTAYMQLSSLTSDDSAVYFCARRNFGNYYFDYWGQGTTLTVSS VL: DIVLTQSHKFMSTVIGDRVSITCKASHDVKTAVAWYQQTPGQSPKLLTYWSSTRHTGVPDRFTGSGSGTDYTLTISSVQAEDLALYYCQQHFSTPLTFGAGTKLELK What is its recorded kon?
**Result** 754000

Values compiled from patent US20240262926A1.
